Value source: paper PMC8162404

# System Under Test: S100B (Homo sapiens, UniProt P04271)
# Construct: made in house; host or cells: Escherichia coli BL21(DE3)
# Sequence (P04271 whole entry): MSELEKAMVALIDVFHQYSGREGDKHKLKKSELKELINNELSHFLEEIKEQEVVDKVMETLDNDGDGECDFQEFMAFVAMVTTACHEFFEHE
# Procedure Text: Competition pull-down with native ligand RSK1 (689–735)
# Assay type: binding
# Assay Conditions: H14 library; competitor peptide 200 µM; read-out: Surface mapping KD (apparent), competition
Test Readout: Kd (µM)
Report as a plain number; the unit µM is understood.

Consider the following illustrative entries.
Name the reported Kd value associated with the compound NC(=O)[C@H]1CCCC[C@@H]1NC(=O)C[C@H](Cc1ccccc1)NC(=O)[C@H]1CCCC[C@@H]1NC(=O)[C@H]1CCCC[C@@H]1NC(=O)C[C@H](Cc1ccc(O)cc1)NC(=O)[C@H]1CCCC[C@@H]1N [H14 YF] 149

State the recorded Kd for this entry: NC(=O)CC[C@@H](CC(=O)N[C@H]1CCCC[C@@H]1C(=O)N[C@H]1CCCC[C@@H]1C(=O)N[C@H](CC(=O)N[C@H]1CCCC[C@@H]1C(N)=O)Cc1c[nH]c2ccccc12)NC(=O)[C@H]1CCCC[C@@H]1N [H14 QW] 473

For C[C@@H](O)[C@@H](CC(=O)N[C@H]1CCCC[C@@H]1C(N)=O)NC(=O)[C@H]1CCCC[C@@H]1NC(=O)[C@H]1CCCC[C@@H]1NC(=O)C[C@H](Cc1ccccc1)NC(=O)[C@H]1CCCC[C@@H]1N [H14 FT] , what is its reported Kd? 333

Continuing:
Could you tell me which Kd is on file for CC(C)[C@@H](CC(=O)N[C@H]1CCCC[C@@H]1C(=O)N[C@H]1CCCC[C@@H]1C(=O)N[C@H](CC(=O)N[C@H]1CCCC[C@@H]1C(N)=O)Cc1ccc(O)cc1)NC(=O)[C@H]1CCCC[C@@H]1N [H14 VY] ? 167
